- SYSTEM UNDER TEST: human URAT1 (hURAT1 WT) (Homo sapiens, UniProt Q96S37)
- MEASUREMENT DESCRIPTION: URAT1 uric acid transport activity assay
- Format: cell-based
- MEASUREMENT SETUP: hURAT1 WT; MES pH 5.5; 100 μM 14C-uric acid
VALUE KIND: IC50 (µM)
One number for each entry, in µM.

# input compound: "O=c1[nH]c(=O)c2[nH]c(=O)[nH]c2[nH]1" ; wanted: its IC50
246

====

- SYSTEM UNDER TEST: r-V22M rURAT1 point mutant (Rattus norvegicus, UniProt Q3ZAV1, V22M)
- MEASUREMENT DESCRIPTION: URAT1 uric acid transport activity assay
- Type: cell-based
VALUE KIND: pIC50
Answers are plain numbers, as −log10 of the molar value.

# input compound: "CCc1oc2ccccc2c1C(=O)c1cc(Br)c(O)c(Br)c1" ; wanted: its pIC50
4.70

====

- SYSTEM UNDER TEST: r-T26V rURAT1 point mutant (Rattus norvegicus, UniProt Q3ZAV1, T26V)
- Sequence (Q3ZAV1 1-553 T26V): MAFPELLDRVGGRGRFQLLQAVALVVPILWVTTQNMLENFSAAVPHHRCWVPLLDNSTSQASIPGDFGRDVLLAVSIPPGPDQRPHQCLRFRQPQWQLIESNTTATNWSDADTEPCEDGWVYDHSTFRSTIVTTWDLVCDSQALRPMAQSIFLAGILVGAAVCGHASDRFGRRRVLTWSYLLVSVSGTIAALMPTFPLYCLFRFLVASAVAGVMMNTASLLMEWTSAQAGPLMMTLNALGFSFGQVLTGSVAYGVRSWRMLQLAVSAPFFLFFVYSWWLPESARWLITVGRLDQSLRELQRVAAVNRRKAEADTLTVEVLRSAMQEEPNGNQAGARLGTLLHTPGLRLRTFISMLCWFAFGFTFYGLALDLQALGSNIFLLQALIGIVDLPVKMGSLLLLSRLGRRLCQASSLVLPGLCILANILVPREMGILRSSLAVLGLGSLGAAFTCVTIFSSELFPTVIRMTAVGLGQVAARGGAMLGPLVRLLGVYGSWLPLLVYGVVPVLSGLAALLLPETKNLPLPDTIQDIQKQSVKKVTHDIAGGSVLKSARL
- MEASUREMENT DESCRIPTION: URAT1 uric acid transport activity assay
- Type: cell-based
- MEASUREMENT SETUP: r-T26V; MES pH 5.5; 100 μM 14C-uric acid; read-out: IC50 (uric acid transport)
VALUE KIND: IC50

Query the reported IC50 for r-T26V rURAT1 point mutant (Rattus norvegicus, UniProt Q3ZAV1, T26V); item: "O=C(O)CSc1nnc(Br)n1-c1ccc(C2CC2)c2ccccc12"
76 µM

====

- SYSTEM UNDER TEST: h-V18L hURAT1 point mutant (Homo sapiens, UniProt Q96S37, V18L)
- MEASUREMENT DESCRIPTION: URAT1 uric acid transport activity assay
- MEASUREMENT SETUP: HEPES pH 7.3, 100 μM 14C-uric acid
VALUE KIND: IC50 (µM)
Numbers only, in µM.

# input molecule: O=C1C(CC[S+]([O-])c2ccccc2)C(=O)N(c2ccccc2)N1c1ccccc1 (stereo not shown) ; wanted: its IC50
19

====

- SYSTEM UNDER TEST: r-T32C rURAT1 point mutant (Rattus norvegicus, UniProt Q3ZAV1, T32C)
- MEASUREMENT DESCRIPTION: URAT1 uric acid transport activity assay
- Type: cell-based
VALUE KIND: IC50 (µM)
Give bare numbers, in µM.

# input compound: CCc1oc2ccccc2c1C(=O)c1cc(Br)c(O)c(Br)c1 [benzbromarone] ; wanted: its IC50
24

====

- SYSTEM UNDER TEST: r-h TM1 chimera (hURAT1 residues 1–99 and rURAT1 residues 100–553) (UniProt Q3ZAV1+Q96S37)
- Construct: The chimera r-hTM1, consisting of hURAT1 residues 1–99 and rURAT1 residues 100–553
- Sequence (Q96S37 1-99): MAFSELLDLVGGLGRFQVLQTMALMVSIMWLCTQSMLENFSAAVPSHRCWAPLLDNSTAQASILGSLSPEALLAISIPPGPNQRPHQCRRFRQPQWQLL
- Sequence (Q3ZAV1 100-553): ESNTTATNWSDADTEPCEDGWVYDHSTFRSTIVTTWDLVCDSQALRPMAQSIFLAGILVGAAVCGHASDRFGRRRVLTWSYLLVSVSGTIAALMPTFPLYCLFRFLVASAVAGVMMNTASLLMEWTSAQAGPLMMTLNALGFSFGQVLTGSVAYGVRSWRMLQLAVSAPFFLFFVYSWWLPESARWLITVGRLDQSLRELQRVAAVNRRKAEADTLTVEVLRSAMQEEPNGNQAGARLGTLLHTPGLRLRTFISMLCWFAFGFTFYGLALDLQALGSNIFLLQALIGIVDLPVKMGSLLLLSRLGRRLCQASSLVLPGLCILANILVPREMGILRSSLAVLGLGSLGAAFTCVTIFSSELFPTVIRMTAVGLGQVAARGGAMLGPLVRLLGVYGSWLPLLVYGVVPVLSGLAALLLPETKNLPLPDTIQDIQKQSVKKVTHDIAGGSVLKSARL
- MEASUREMENT DESCRIPTION: URAT1 uric acid transport activity assay
- MEASUREMENT SETUP: HEPES pH 7.3, 100 μM 14C-uric acid
VALUE KIND: IC50

# input molecule: O=C1C(CC[S+]([O-])c2ccccc2)C(=O)N(c2ccccc2)N1c1ccccc1 (stereo not shown) ; wanted: its IC50
87 µM

====

- SYSTEM UNDER TEST: h-C32T hURAT1 point mutant (Homo sapiens, UniProt Q96S37, C32T)
- Sequence (Q96S37 1-553 C32T): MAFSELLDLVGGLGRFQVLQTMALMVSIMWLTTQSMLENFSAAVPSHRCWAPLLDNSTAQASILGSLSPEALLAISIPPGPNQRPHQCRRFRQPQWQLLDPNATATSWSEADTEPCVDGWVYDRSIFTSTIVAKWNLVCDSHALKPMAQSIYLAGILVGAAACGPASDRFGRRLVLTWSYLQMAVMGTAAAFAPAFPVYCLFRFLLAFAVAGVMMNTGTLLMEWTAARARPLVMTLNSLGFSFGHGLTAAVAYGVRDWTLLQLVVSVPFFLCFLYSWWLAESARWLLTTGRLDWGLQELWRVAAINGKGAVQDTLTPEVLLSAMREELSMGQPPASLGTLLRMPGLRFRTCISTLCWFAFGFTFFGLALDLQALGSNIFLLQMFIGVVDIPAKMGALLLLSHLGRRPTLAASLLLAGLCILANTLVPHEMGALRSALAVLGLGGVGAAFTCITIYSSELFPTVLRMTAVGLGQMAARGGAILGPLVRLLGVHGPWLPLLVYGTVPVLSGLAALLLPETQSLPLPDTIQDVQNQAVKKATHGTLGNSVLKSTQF
- MEASUREMENT DESCRIPTION: URAT1 uric acid transport activity assay
- MEASUREMENT SETUP: HEPES pH 7.3, 100 μM 14C-uric acid
- Experimental: hURAT1 (GenBank BC053348.1) and rURAT1 (NCBI NM_001034943.1) genes were purchased from Origene Technologies, Inc. and subcloned into pCMV6/neo using NotI, creating pCMV6/neo-hURAT1 and pCMV6/neo-rURAT1. […] Compounds were serially diluted into assay buffer and added to the cells for 5 minutes prior to addition of radiolabelled uric acid substrate. […] Each treatment was measured in triplicate. […]
VALUE KIND: IC50
Please don't drop the unit; write it after the number.

# input compound: O=C1C(CC[S+]([O-])c2ccccc2)C(=O)N(c2ccccc2)N1c1ccccc1 (stereo not shown) [sulfinpyrazone] ; wanted: its IC50
29 µM

====

- SYSTEM UNDER TEST: r-L29M rURAT1 point mutant (Rattus norvegicus, UniProt Q3ZAV1, L29M)
- MEASUREMENT DESCRIPTION: URAT1 uric acid transport activity assay
- Format: cell-based
VALUE KIND: pIC50
Give bare numbers, as −log10 of the molar value.

# input molecule: CCc1oc2ccccc2c1C(=O)c1cc(Br)c(O)c(Br)c1 [benzbromarone] ; wanted: its pIC50
4.68

====

- SYSTEM UNDER TEST: r-N35S/Y365F rURAT1 double point mutant (Rattus norvegicus, UniProt Q3ZAV1, N35S/Y365F)
- Construct: expressed in transfected cells; host or cells: HEK-293T
- Sequence (Q3ZAV1 1-553 N35S/Y365F): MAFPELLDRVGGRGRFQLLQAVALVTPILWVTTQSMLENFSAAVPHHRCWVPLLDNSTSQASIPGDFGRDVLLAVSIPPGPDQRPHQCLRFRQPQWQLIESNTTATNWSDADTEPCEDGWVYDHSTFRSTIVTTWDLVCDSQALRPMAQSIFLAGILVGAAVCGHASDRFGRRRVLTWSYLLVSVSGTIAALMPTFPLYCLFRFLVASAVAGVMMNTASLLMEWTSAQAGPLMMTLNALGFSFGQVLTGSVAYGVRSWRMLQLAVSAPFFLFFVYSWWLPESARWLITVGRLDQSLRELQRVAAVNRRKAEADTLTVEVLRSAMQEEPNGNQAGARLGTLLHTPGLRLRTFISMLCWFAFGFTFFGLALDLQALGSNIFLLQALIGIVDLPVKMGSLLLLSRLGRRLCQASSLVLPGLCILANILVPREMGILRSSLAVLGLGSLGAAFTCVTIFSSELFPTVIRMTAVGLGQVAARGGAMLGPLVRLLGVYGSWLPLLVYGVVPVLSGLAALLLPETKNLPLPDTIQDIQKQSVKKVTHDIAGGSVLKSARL
- MEASUREMENT DESCRIPTION: URAT1 uric acid transport activity assay
- Assay type: cell-based
- MEASUREMENT SETUP: r-N35S/Y365F; HEPES pH 7.3; 100 μM 14C-uric acid; read-out: IC50 (uric acid transport)
VALUE KIND: IC50 (µM)
Give bare numbers, in µM.

# input molecule: O=C1C(CC[S+]([O-])c2ccccc2)C(=O)N(c2ccccc2)N1c1ccccc1 (stereo not shown) [sulfinpyrazone] ; wanted: its IC50
142
